Tested on: HT-29
protocol: Antiproliferative activity against human HT-29 cells by MTT assay
Format: functional, cell-based
Values of IC50 strictly less than 2000 nM map to y, and values of at least 2000 nM map to n.

Consider the worked cases shown below.
[
  {
    "smiles text": "CO[C@@H]1[C@@H](O)[C@H](O[C@H]2CC[C@@]3(C)[C@H](CC[C@@H]4[C@@H]3CC[C@]3(C)[C@@H](C5=CC(=O)OC5)[C@@H](O)C[C@]43O)C2)O[C@@H](C)[C@@H]1O[C@@H]1O[C@H](CO)[C@@H](O)[C@H](O)[C@H]1O",
    "class label": "n"
  },
  {
    "smiles text": "CO[C@@H]1[C@@H](O)[C@H](O[C@H]2CC[C@@]3(C)[C@H](CC[C@@H]4[C@@H]3CC[C@]3(C)C(C5=CC(=O)OC5)=CC[C@]43O)C2)O[C@@H](C)[C@@H]1O[C@@H]1O[C@H](CO)[C@@H](O)[C@H](O)[C@H]1O",
    "class label": "y"
  },
  {
    "smiles text": "CO[C@@H]1[C@@H](O[C@@H]2O[C@H](CO[C@@H]3O[C@H](CO)[C@@H](O)[C@H](O)[C@H]3O)[C@@H](O)[C@H](O)[C@H]2O)[C@H](C)O[C@@H](O[C@H]2CC[C@@]3(C)[C@H](CC[C@@H]4[C@@H]3CC[C@]3(C)[C@@H](C5=CC(=O)OC5)[C@@H](OC(C)=O)C[C@]43O)C2)[C@@H]1OC(C)=O",
    "class label": "n"
  },
  {
    "smiles text": "CO[C@H]1[C@@H](O)[C@H](O[C@H]2CC[C@@]3(C)[C@H](CC[C@@H]4[C@@H]3CC[C@]3(C)[C@@H](C5=CC(=O)OC5)[C@@H](OC(C)=O)C[C@]43O)C2)O[C@@H](C)[C@@H]1O[C@@H]1O[C@H](CO[C@@H]2O[C@H](CO)[C@@H](O)[C@H](O)[C@H]2O)[C@@H](O)[C@H](O)[C@H]1O",
    "class label": "y"
  }
]

Proceed to the following item.
query: # TODO verify IC50 < 2000 nM strictly for this compound: "CO[C@H]1[C@@H](O)[C@H](O[C@H]2CC[C@@]3(C)[C@H](CC[C@@H]4[C@@H]3CC[C@]3(C)C(C5=CC(=O)OC5)=CC[C@]43O)C2)O[C@@H](C)[C@@H]1O[C@@H]1O[C@H](CO)[C@@H](O)[C@H](O)[C@H]1O"
result: y

---

Answer each item with its documented IC50.
Test system: HT-29
protocol: Antiproliferative activity against human HT-29 cells by MTT assay
Type: functional, cell-based
Numbers only, in nM.

[
  {
    "smiles text": "CO[C@@H]1[C@@H](O)[C@H](O[C@H]2CC[C@@]3(C)[C@H](CC[C@@H]4[C@@H]3CC[C@]3(C)[C@@H](C5=CC(=O)OC5)[C@@H](OC(C)=O)C[C@]43O)C2)O[C@@H](C)[C@@H]1O[C@@H]1O[C@H](CO[C@@H]2O[C@H](CO)[C@@H](O)[C@H](O)[C@H]2O)[C@@H](O)[C@H](O)[C@H]1O",
    "readout unit": "nM",
    "IC50": 1600
  }
]

Continue with the molecule presented below.
query: Record request: IC50 value, item "CO[C@@H]1[C@@H](O[C@@H]2O[C@H](CO)[C@@H](O)[C@H](O)[C@H]2O)[C@H](C)O[C@@H](O[C@H]2CC[C@@]3(C)[C@H](CC[C@@H]4[C@@H]3CC[C@]3(C)[C@@H](C5=CC(=O)OC5)[C@@H](OC(C)=O)C[C@]43O)C2)[C@@H]1OC(C)=O"
result: 1900
